The reported numbers originate from patent US9796753B2.

Readings of GI50 for the listed compounds
# Test system: breast MDA-MB-435
# assay remarks: COMPARE screening (NCI human cancer cell line screen), cytotoxicity GI50
# Type: cell-based

- compound: "COc1cc2c3c(n(CCCNc4nccs4)c(=O)c2cc1OC)-c1cc2c(cc1C3=O)OCO2.Cl.Cl [Compound 5o, Dihydrochloride]"
  GI50: "< 0.01 µM"
- compound: "CC(C)(C)OC(=O)NCCCCCCCCCCn1c2c(c3ccccc3c1=O)C(=O)c1ccccc1-2"
  GI50: "> 100 µM"
- compound: "COc1ccc2c(c1)C(=O)c1c-2n(CCCN(C)C)c(=O)c2cc([N+](=O)[O-])ccc12"
  GI50: "< 0.01 µM"

Continue with the next compound.
Bench note, breast MDA-MB-435: CC(C)(C)OC(=O)NCCCCCCCCCn1c2c(c3ccccc3c1=O)C(=O)c1ccccc1-2 , GI50 reads > 100 µM
